- System: mice
- assay_method_text: Neuropharmacological assay (SmartCube), behavioral signature of compound-treated mice
- Assay type: in vivo
- condition_info: i.p. 15 min before behavioral test, most efficacious dose(s) of 3 doses
measured_attribute: CE: cognitive enhancer (probability that behavioral signature matches class)

1. Fc1ccc2c(c1)[C@H]([C@@H]1CCCN1)OCCC2 ... ++ (5% ≤ ++ <25%)
2. c1ccc2c(c1)CCCO[C@@H]2[C@H]1CCCN1 ... ++ (5% ≤ ++ <25%)
3. c1ccc2c(c1)CCO[C@H]2[C@@H]1COCCN1 [Compound I-76, (S)-3-((R)-isochroman-1-yl)morpholine] ... + (LOQ ≤ + <5%)
4. N#Cc1ccc2c(c1)[C@@H]([C@H]1CCCN1)OCC2 ... ++ (5% ≤ ++ <25%)
5. C[C@]1([C@@H]2CCCN2)OCc2cc(F)ccc21 ... + (LOQ ≤ + <5%)
6. Clc1ccc2c(c1)[C@@H]([C@H]1CCCN1)OCC2 ... ++ (5% ≤ ++ <25%)
7. Fc1ccc2c(c1)[C@@H]([C@@H]1CCN1)OCC2 ... ++ (5% ≤ ++ <25%)

These entries and their values trace back to patent US10336732B2.
